Exercise: state measured pre-steady-state target cleavage rate for each of the sequences provided.
test system: MILI (PIWIL2) piRISC loaded with L1MC piRNA (26 nt); assay: pre-steady-state target cleavage rate (min^-1); guide: L1MC piRNA 5'p-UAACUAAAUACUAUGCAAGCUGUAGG; MIWI and MILI are mouse PIWI proteins and EfPiwi is from a freshwater sponge; tags in brackets are library labels; higher = faster piRNA-guided slicing of the target; settings: auxiliary factor: none (no GTSF1);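 note: 1 nM active piRISC with 0.1 nM target library at 33 °C single turnover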
The answer should be written as a number, with no unit following it.

Input line: Reported pre-steady-state target cleavage rate, sequence UCCUGGAUGAGCUUGCAUAGUAAUUAGUUA : ____
Output line: 0.00598

Input line: Dear colleague, I am looking for the recorded pre-steady-state target cleavage rate of the following sequence: UCCUGGUACAGCUUGCAUAGUUUUAAGUUA
Output line: 0.00428

Input line: Name the recorded pre-steady-state target cleavage rate for UCCUGGAUGUCCUUGGAUAGUAUAUAGUUA .
Output line: 0.0038

Each recorded value in this set is attributed to the supplement of paper PMC10338343.
